system: RXF-631 renal; experiment: NCI tumour cell line growth inhibition, 48 h

COMPOUND | TGI
Cc1nc(N)sc1C(=O)/C=C/c1ccc(/C=C/C(=O)c2sc(NC(=O)CCCCCCCCC(=O)Nc3nc(C)c(C(=O)/C=C/c4ccc(/C=C/C(=O)c5sc(N)nc5C)cc4)s3)nc2C)cc1 | > 100 µM
NC(=O)COc1ccccc1 | > 100 µM
NC(=O)c1c[se]c(C2OC(CO)C(O)C2O)n1 (stereo not given) | > 100 µM
CC1=C2C(O)C(C(C)CO)C(O)CC2(C)C(O)CC1 (stereo not given) | > 100 µM
C=CCCCCCCCCCCCC1CCC(CC)N1 (stereo not given) | 23.5 µM

* * *

test system: RPMI-8226 leukemia; experiment: NCI tumour cell line growth inhibition, 48 h; in the data active means GI50 below about 0.43 µM; inactive means the rest
Outcomes: active, inactive

LINE_NOTATION | ASSIGNED_CLASS
COc1cc(-c2cnn(C)c2)ccc1Nc1ncc2ccnc(N[C@@H](C)C(C)(C)C)c2n1 | inactive
S=C(Nc1ccc(-c2nc3ccccc3[nH]2)cc1)NC1CCCCC1 | inactive
C[CH2][Sn]1([CH2]C)[O]C(=O)[O][Sn]([CH2]C)([CH2]C)[O]1 | inactive
Cc1ccc(C(=O)c2oc3ccc4c(C)cc(=O)oc4c3c2C)cc1 | inactive
COc1cc2c(cc1C)NC(=O)/C2=C\c1cc(OC)c(OC)c(OC)c1 | inactive
CCOC(=O)[C@@H](C)C[C@H](Cc1ccccc1)NC(=O)c1csc([C@@H](C[C@H](C(C)C)N(C)C(=O)[C@@H](NC(=O)[C@H]2C[C@H](O[Si](C)(C)C(C)(C)C)CCN2C)C(C)C)OC(C)=O)n1 | active
CC1(C)C=CC[C@]2(C)[C@H]3CC[C@@H]4[C@H]5[C@H](C(=O)/C=C/c6cccnc6)CC[C@]5(CO)CC[C@@]4(C)[C@]3(C)CC[C@@H]12 | inactive
CC(C)c1ccc(Cc2cnc(NC(=O)c3cc(Br)cs3)s2)cc1 | inactive

* * *

tested on: CCRF-CEM leukemia; experiment: NCI tumour cell line growth inhibition, 48 h

MOLECULE | TGI
CC(C)(C)N1Cc2ccccc2/C(=C/Sc2ccccc2)C1=O | > 100 µM
COc1ccc2c(c1)CCc1c-2n(CCN(C)C)c2ccc(OC)cc12 | 9.5 µM
COc1cc(OC2OC(C)C(O)C(O)C2O)cc2oc(-c3ccc(O)cc3)c(CC=C(C)C)c(=O)c12 (stereo unspecified) | 31.8 µM
COC(=O)c1c(-c2ccccc2)cc2c3cc(-c4ccccc4)c(C(=O)OC)n3c3ccccc3n12 | > 100 µM
O=C(/C=C/c1ccc([N+](=O)[O-])cc1)c1nc2ccccc2[nH]1 | > 100 µM
CC(=O)N/C(=C\c1ccc(/C=C(\NC(C)=O)c2nc3ccc(Cl)cc3[nH]2)cc1)c1nc2ccccc2[nH]1 | > 100 µM
N#CCCc1nc2ccc(Br)cc2c(=O)n1CCO | > 100 µM
COC1/C=C/C(C)C(C(C)C(OC)C(C)CCC(=O)C(C)C(CCC(=O)O)OC)OC(=O)/C=C/C=C(\C)CC(OC)CC2=CC(=O)O[C@@H](C(C)C(OC)CC(OC)/C=C/C(C)C(OC)C1)[C@H]2O (stereo partly specified) | > 1.58 µM
CCOC(=O)C(C)(C)Oc1ccc2c(=O)cc(-c3ccc(Cl)cc3)oc2c1 | > 100 µM
CCOC(=O)C(C(=O)Cc1ccccc1)c1ccccc1 (stereo unspecified) | > 100 µM
c1cnc2c(c1)-n1cccc1C1(CCSCC1)NN2 | > 100 µM
COc1cc(/C=C2/SC(c3ccccc3)N(c3cccc([N+](=O)[O-])c3)C2=O)cc(OC)c1OC (stereo unspecified) | > 100 µM
CC#CC(O)(C(=O)OC1CCCN(C)C1)C1=CC=CCC1 (stereo unspecified) | > 100 µM
CCOC(=O)CCC(=O)C1c2cccc(O)c2C(=O)c2c(O)cccc21 | 3.68 µM
CC(C)c1ccc(Cc2cnc(NC(=O)c3cc(Br)cs3)s2)cc1 | > 100 µM
c1ccc2c(c1)[I+]c1ccccc1-2 | > 50 µM
C=CCc1cc2cccc(OC)c2oc1=O | > 100 µM
CC(C)=CC(C(O)c1ccccc1)S(=O)(=O)c1nccn1C (stereo unspecified) | > 100 µM
CSC(=NC1=NC(C(F)(F)F)(C(F)(F)F)N=C(c2ccccc2)O1)SC | > 100 µM
COC(=O)C1(C(=O)OC)N=C(C)OC1C(C)C (stereo unspecified) | > 100 µM
N#CCc1nc(C#N)c(N)o1 | > 100 µM
